Where these numbers come from: ChEMBL document CHEMBL1156117

Measured log10 IC50, listed per entry.
- Tested on: Trypanosoma cruzi
- assay notes: Antitrypanosomal activity against Trypanosoma cruzi epimastigotes
- Assay type: functional, organism-based
The base-10 logarithm of IC50, taken with IC50 in nM, is what appears here.

Examples with answers:
[O-][n+]1onc2ccc(/C=C\Sc3ccccc3)cc21 : 3.58
O=S(=O)(/C=C/c1ccc2no[n+]([O-])c2c1)c1ccccc1 (stereo in doubt; 4E) : 3.20
[O-][n+]1onc2ccc(/C=C/Sc3ccccc3)cc21 : 3.41

Prompt: Dear colleague, I am looking for the recorded log10 IC50 of the following compound: [O-][n+]1onc2ccc(/C=C/c3ccccc3)cc21
Completion: 4.03

Prompt: Can you check [O-][n+]1onc2ccc(/C=C\c3ccccc3)cc21 next?
Completion: 3.85

Prompt: Can you check [O-][n+]1onc2ccc(/C=C\[S+]([O-])c3ccccc3)cc21 (centres undefined) next?
Completion: 2.85

Prompt: Can you check O=S(=O)(/C=C\c1ccc2no[n+]([O-])c2c1)c1ccccc1 next?
Completion: 3.04

Prompt: Can you check [O-][n+]1onc2ccc(/C=C/[S+]([O-])c3ccccc3)cc21 (stereo in doubt; 3E) next?
Completion: 3.41

Prompt: Can you check C=CS(=O)(=O)Cc1ccc2no[n+]([O-])c2c1 next?
Completion: 4.16
